Reported IC50 values follow for various molecules
# Assay System: Thymidylate synthase (Escherichia coli)
# Sequence (C3SWJ7 whole entry): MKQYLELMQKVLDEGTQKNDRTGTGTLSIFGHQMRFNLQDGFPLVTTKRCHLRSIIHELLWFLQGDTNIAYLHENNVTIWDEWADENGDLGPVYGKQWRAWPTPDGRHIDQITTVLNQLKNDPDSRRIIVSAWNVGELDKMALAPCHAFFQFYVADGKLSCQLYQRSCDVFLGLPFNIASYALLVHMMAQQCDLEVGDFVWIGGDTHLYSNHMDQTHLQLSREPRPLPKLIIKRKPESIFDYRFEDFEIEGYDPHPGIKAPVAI
# Method Description: Inhibitory concentration against isolated Escherichia coli Thymidylate synthase
Record the value in µM, omitting the unit from your answer.

{"columns": ["Structure As Smiles", "Reading Unit", "Result"],
 "data": [
  ["Cc1nc(N)nc2[nH]cc(CCc3ccc(C(=O)N[C@@H](CCC(=O)O)C(=O)O)cc3)c12", "µM", 2]
]}

Lookup: Consider the molecule shown here: `Cc1nc(N)nc2c1c(CCc1ccc(C(=O)N[C@@H](CCC(=O)O)C(=O)O)cc1)cn2Cc1ccccc1` What is its recorded IC50?
Found: 16

###

Record type: IC50 measurement. Applies to: Bifunctional dihydrofolate reductase-thymidylate synthase (Toxoplasma gondii)

Lookup: May I ask what IC50 has been recorded for `Cc1cn([C@@H]2O[C@H](COP(=O)(O)O)[C@@H](O)[C@H]2O)c(=O)[nH]c1=O` ?
Found: 3.4 µM

Lookup: For the compound `Cc1nc(N)nc2[nH]cc(CCc3ccc(C(=O)N[C@@H](CCC(=O)O)C(=O)O)cc3)c12` , what IC50 is on record?
Found: 1.2 µM

Lookup: What does the record list as IC50 for `Cc1nc(N)nc2c1c(CCc1ccc(C(=O)N[C@@H](CCC(=O)O)C(=O)O)cc1)cn2Cc1ccccc1` ?
Found: > 19 µM

###

pIC50: recorded values
# Assay System: Dihydrofolate reductase (Homo sapiens, UniProt P00374)
# Sequence (P00374 whole entry): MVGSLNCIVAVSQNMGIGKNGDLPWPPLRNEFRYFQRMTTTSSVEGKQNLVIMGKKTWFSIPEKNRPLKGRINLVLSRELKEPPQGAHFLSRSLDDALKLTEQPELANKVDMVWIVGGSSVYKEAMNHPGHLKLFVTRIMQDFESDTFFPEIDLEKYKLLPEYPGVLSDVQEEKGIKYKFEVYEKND
# Method Description: Inhibitory concentration against isolated human Dihydrofolate reductase
Just the number, please; pIC50 means minus log10 of the concentration in mol/L.

{"columns": ["Structure As Smiles", "pIC50"],
 "data": [
  ["Cc1nc(N)nc2[nH]cc(CCc3ccc(C(=O)N[C@@H](CCC(=O)O)C(=O)O)cc3)c12", 6.10]
]}

Proceed to the following item.
Lookup: Checklist item: pIC50 tested on Dihydrofolate reductase (Homo sapiens, UniProt P00374), entry `Cc1cn([C@@H]2O[C@H](COP(=O)(O)O)[C@@H](O)[C@H]2O)c(=O)[nH]c1=O` , value?
Found: 3.47

###

# Assay System: Thymidylate synthase (Rattus norvegicus, UniProt P45352)
# Sequence (P45352 whole entry): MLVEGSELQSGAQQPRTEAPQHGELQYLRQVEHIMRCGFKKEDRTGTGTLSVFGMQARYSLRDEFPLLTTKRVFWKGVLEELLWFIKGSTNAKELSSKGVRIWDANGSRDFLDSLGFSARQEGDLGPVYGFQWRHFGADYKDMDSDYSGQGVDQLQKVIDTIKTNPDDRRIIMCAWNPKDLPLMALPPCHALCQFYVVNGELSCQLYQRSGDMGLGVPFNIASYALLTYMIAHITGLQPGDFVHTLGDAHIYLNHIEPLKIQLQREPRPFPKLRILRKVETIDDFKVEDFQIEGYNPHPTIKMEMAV
# Method Description: Inhibitory concentration against isolated rat thymidylate synthase
Quantity: pIC50
# pIC50 is unitless: minus log10 of the molar concentration; print number only

Completed entries (count: 2):
{"columns": ["Structure As Smiles", "pIC50"],
 "data": [
  ["Cc1nc(N)nc2[nH]cc(CCc3ccc(C(=O)N[C@@H](CCC(=O)O)C(=O)O)cc3)c12", 5.70],
  ["Nc1nc2[nH]cc(CCc3ccc(C(=O)N[C@@H](CCC(=O)O)C(=O)O)cc3)c2c(=O)[nH]1", 4.70]
]}

--- query ---
Lookup: // query pIC50 value for entry `Cc1nc2ccc(CN(C)c3ccc(C(=O)N[C@@H](CCC(=O)O)C(=O)O)s3)cc2c(=O)[nH]1`
Found: 6.05

###

# Test system: carcinoma cell line
# Method Description: Tested for their inhibition of growth of CCRF-CEM human leukemia on carcinoma cell lines.
# Assay type: functional, cell-based
pIC50: −log10 of the molar value.
Quantity: pIC50

Lookup: Report pIC50 for `Cc1nc(N)nc2c1c(CCc1ccc(C(=O)N[C@@H](CCC(=O)O)C(=O)O)cc1)cn2Cc1ccccc1` please.
Found: < 5.00
